Recorded values, source patent US20180168208A1.

Target: T1R1/T1R3 receptor (Felis catus, UniProt E3UMS2)
Test: Example 6: activation of T1R1/T1R3 by transmembrane compounds, conducted as in Example 5
Assay type: cell-based
Conditions: T1R1/T1R3 EC50 +20 mM L-alanine, +20 mM L-alanine
Counter-ions that a name gives are not always drawn.
measurement-label: pEC50
Kindly note that pEC50 refers to -log10 of the concentration in mol/L and answer with the value alone.

If you can, please state the reported pEC50 value of COC(=O)[C@H](Cc1ccccc1)NCc1ccccc1 [HCl] .
4.30

###

We begin with a simple list: items and their reported Max resp % of IMP + Alanine.
Target: T1R1/T1R3 receptor (Felis catus, UniProt E3UMS2)
Assay: cell-based
Type: cell-based
Settings: + Alanine; Table 17
Text: HEK293 cells that stably express T1R3 and inducibly express T1R1 were exposed to transmembrane compounds alone or in combination with one or more amino acids and/or one or more nucleotides to activate the umami receptor. Activation of the T1R1/T1R3 receptor was detected by a change in intracellular calcium levels using a calcium sensitive fluorescent dye. Cells that express T1R3 but not T1R1 were used as a control. A FLIPR® Tetra or a FlexStation® 3 was used for data capture. […]

Consider the reported Max resp % of IMP + Alanine for these compounds:
>  <compound>
O=C(Nc1ccccc1Br)N[C@@H]1c2ccccc2C[C@@H]1O (stereo in doubt)

>  <Max resp % of IMP + Alanine>
33.0 % of IMP

$$$$
>  <compound>
CCC(CC)NC(=O)c1ccc(C)c(C)c1 [3,4-dimethyl-N-(pentan-3-yl)benzamide]

>  <Max resp % of IMP + Alanine>
97.8 % of IMP

$$$$
>  <compound>
CCC(CC)NC(=O)c1ccc2c(c1)OCCO2

>  <Max resp % of IMP + Alanine>
25.2 % of IMP

$$$$
>  <compound>
CCCC(C)NC(=O)c1ccc(OC)c(C)c1 (stereo not shown)

>  <Max resp % of IMP + Alanine>
126.0 % of IMP

$$$$
>  <compound>
CCC(CC)NC(=O)c1ccc(Br)o1

>  <Max resp % of IMP + Alanine>
126.8 % of IMP

$$$$

If you can, please state the reported Max resp % of IMP + Alanine value of `O=C(CN1C(=O)C(=O)N(Cc2ccccc2)C1=O)c1ccccc1` .
127.6 % of IMP

If you can, please state the reported Max resp % of IMP + Alanine value of `CCC(CC)NC(=O)/C=C/c1ccc(OC)cc1` .
64.1 % of IMP

If you can, please state the reported Max resp % of IMP + Alanine value of COc1ccc(C(=O)NC(C)c2ccccc2)cc1C (stereo not shown) .
41.0 % of IMP

If you can, please state the reported Max resp % of IMP + Alanine value of COC(=O)C(NC(=O)/C=C/c1cccs1)C(C)C (stereo not shown) .
9.5 % of IMP

###

We begin with a simple list: items and their reported EC50.
Target: T1R1/T1R3 receptor (Felis catus)
Assay: cell-based
Settings: EC50 (mM), +Alanine (20 mM) + IMP (0.2 mM), in the presence of 20 mM alanine and 0.2 mM IMP
Text: HEK293 cells that stably express T1R3 and inducibly express T1R1 were exposed to nucleotide derivatives alone to activate the umami receptor. Activation of the T1R1/T1R3 receptor was detected by a change in intracellular calcium levels using a calcium sensitive fluorescent dye. Cells that express T1R3 but not T1R1 were used as a control. A FLIPR® Tetra or a FlexStation® 3 was used for data capture. […]
Just the number in mM, nothing appended.

>  <compound>
O=C(NCCc1ccccc1)c1ccc2c(c1)OCO2

>  <units-symbol>
mM

>  <EC50>
0.03

$$$$

If you can, please state the reported EC50 value of O=C(NCCc1ccccc1)c1ccccc1 [N-phenethylbenzamide] .
0.09

If you can, please state the reported EC50 value of O=C(NCCc1c[nH]c2ccccc12)c1cccnc1 [N-(2-(1H-indol-3-yl)ethyl)nicotinamide, N-(2-(1H-Indol-3-yl)ethyl)nicotinamide] .
0.04
